Assay: Assessment of brain penetration in rats
Format: in vivo
Details: Wistar, rat, subcutaneous, 10 mg/kg; total plasma concentration multiplied by 0.067, 4 hours; read-out: unbound plasma concentration
experimentalEndpoint: concentration at 4 h
Could you give the number and then its unit, please?

# input compound: Cc1cnc(-c2cc(N3CCN(C(=O)CCS(C)(=O)=O)CC3)ncc2Cl)c(C)c1 ; wanted: its concentration at 4 h
149 ng/mL

* * *

Reported pIC50 values, human Smo (Homo sapiens (Human), UniProt Q99835).
Quick note: pIC50 values are minus log10 of concentrations in mol/L.

Study these solved cases before continuing.
Cc1cccnc1-c1cc(N2CCN(c3ccc(C#N)cn3)CC2)ncc1Cl [Example A-19] ... 7.43
Cc1cccnc1-c1cc(N2CCC(NC(=O)CC(C)(C)O)CC2)ncc1Cl [Example A-52] ... 7.27
Cc1cccnc1-c1cc(N2CCC(CS(C)(=O)=O)CC2)ncc1Cl [Example A-51] ... 7.45
Cc1cnc(-c2cc(N3CCC(S(C)(=O)=O)CC3)ncc2Cl)c(C)c1 [Example A-134] ... 6.94
COC(=O)N1CCN(c2cc(-c3ncc(C)cc3C)c(Cl)cn2)CC1 [Example A-101] ... 7.14
CS(=O)(=O)NC1CCN(c2cc(-c3ccc(F)cn3)c(Cl)cn2)CC1 [Example A-18] ... 6.46

What value of pIC50 has been reported for the following compound? CS(=O)(=O)CC1CCN(c2ccc(Cl)c(-c3ccccn3)n2)CC1 [Example A-53]
7.42

Form field: reported pIC50 of Cc1cc(F)cnc1-c1cc(N2CCC(NC(=O)CC(C)(C)O)CC2)ncc1Cl [Example A-146]
7.28

Which pIC50 value is on record for CS(=O)(=O)NC1CCN(c2cc(-c3ncc(Cl)cc3Cl)c(Cl)cn2)CC1 [Example A-12] ?
7.73

* * *

# IC50 values compiled below
System: Gli-Luc/MEF cells
Experiment: Gli-Luc/MEF assay
Format: cell-based, mouse
Conditions: Mus musculus, MEF; Shh-stimulated luciferase, 48 hours
Only the number, expressed in µM, is required.

The following molecules have reported results that may help.
Cc1cc(F)cnc1-c1cc(N2CCC(NC(=O)CCS(C)(=O)=O)CC2)ncc1Cl [Example A-144] ... 0.0166
Cc1ccc(-c2nc(N3CCC(NS(C)(=O)=O)CC3)ccc2Cl)nc1 [Example A-117] ... 0.011
Cc1cccnc1-c1cc(N2CCC(C(=O)NC[C@H]3CCCO3)CC2)ncc1Cl [Example A-63] ... 0.0836
CC(C)(O)CC(=O)N1CCN(c2ccc(Cl)c(-c3ccccn3)n2)CC1 [Example A-90] ... 0.0669

Next molecule, please.
Look up IC50 for this molecule: COCCC(=O)N1CCN(c2cc(-c3ncccc3C)c(Cl)cn2)CC1 [Example A-29]
0.0425

* * *

Assay: Assessment of brain penetration in rats
Assay type: in vivo
Conditions: Wistar, rat, subcutaneous, 10 mg/kg; total plasma concentration multiplied by 0.067, 1 hour; read-out: unbound plasma concentration
experimentalEndpoint: concentration at 1 h (ng/mL)
Give a bare numeral; the unit ng/mL is implied.

Please look up its concentration at 1 h: Cc1cnc(-c2cc(N3CCN(C(=O)CCS(C)(=O)=O)CC3)ncc2Cl)c(C)c1 [Example A-116]
150

* * *

Target: human Smo (Homo sapiens (Human), UniProt Q99835)
Sequence (Q99835 181-787): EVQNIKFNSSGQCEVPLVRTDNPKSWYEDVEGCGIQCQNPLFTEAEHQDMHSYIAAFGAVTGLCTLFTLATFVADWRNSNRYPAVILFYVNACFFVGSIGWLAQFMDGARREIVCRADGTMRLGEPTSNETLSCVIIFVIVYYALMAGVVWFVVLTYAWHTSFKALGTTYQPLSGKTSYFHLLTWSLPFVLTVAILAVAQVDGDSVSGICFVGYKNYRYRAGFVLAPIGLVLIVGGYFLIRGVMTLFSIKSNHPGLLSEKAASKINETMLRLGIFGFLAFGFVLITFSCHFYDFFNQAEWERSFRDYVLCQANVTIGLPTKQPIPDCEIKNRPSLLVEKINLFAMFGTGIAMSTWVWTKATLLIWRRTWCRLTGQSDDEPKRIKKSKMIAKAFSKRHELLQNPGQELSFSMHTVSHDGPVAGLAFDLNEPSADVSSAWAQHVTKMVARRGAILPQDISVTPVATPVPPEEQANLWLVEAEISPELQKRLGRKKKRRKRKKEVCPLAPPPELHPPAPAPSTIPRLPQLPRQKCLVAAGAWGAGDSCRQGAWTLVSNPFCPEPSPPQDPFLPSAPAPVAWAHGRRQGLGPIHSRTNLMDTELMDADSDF
experimentalEndpoint: log10 IC50 (log10 of the value in µM)
Scale: log10; quantity: IC50; unit before log: µM

Cc1cccnc1-c1cc(N2CCC(C(=O)NCC3CN(CC4CC4)C(=O)CO3)CC2)ncc1Cl (centres unmarked) ... -1.59
Cc1cc(F)cnc1-c1cc(N2CCN(S(=O)(=O)CCO)CC2)ncc1Cl ... -1.09
Cc1cnc(-c2cc(N3CCN(C(=O)CCS(C)(=O)=O)CC3)ncc2F)c(C)c1 ... -1.69
CC(=O)N1CCN(c2ncc(Cl)c(-c3ncccc3C)n2)CC1 ... -0.44
COCCS(=O)(=O)N1CCN(c2cc(-c3ncc(C)cc3C)ccn2)CC1 ... -1.01

Lookup: log10 IC50 / human Smo (Homo sapiens (Human), UniProt Q99835) / Cc1cccnc1-c1cc(N2CCC(C(=O)N[C@H]3CC[C@H](CO)CC3)CC2)ncc1Cl
-1.55

What log10 IC50 appears in the records for this molecule with human Smo (Homo sapiens (Human), UniProt Q99835)? Cc1cnc(-c2cc(N3CCC(NC(=O)CO)CC3)ncc2Cl)c(C)c1
-1.25

Please tell me: log10 IC50 of Cc1cccnc1-c1cc(N2CCC(C(=O)N[C@@H]3CCCC[C@H]3O)CC2)ncc1Cl , system human Smo (Homo sapiens (Human), UniProt Q99835)?
-1.49

* * *

Experiment: Assessment of brain penetration in rats
Assay type: in vivo
Settings: Wistar, rat, subcutaneous, 10 mg/kg; total plasma concentration multiplied by 0.067, 7 hours; read-out: unbound plasma concentration
experimentalEndpoint: concentration at 7 h (ng/mL)
Answer with a number only, understood to be in ng/mL.

For Cc1cnc(-c2cc(N3CCN(C(=O)CCS(C)(=O)=O)CC3)ncc2Cl)c(C)c1 , what is its reported concentration at 7 h?
19.2

* * *

Biological target: human Smo (Homo sapiens (Human), UniProt Q99835)
In this section we review reported IC50 values for a set of compounds.
Express your answer in µM, writing the number without its unit.

Below are worked cases with known answers.
CC(C)(O)CC(=O)N1CCN(c2ccc(Cl)c(-c3ccccn3)n2)CC1 ... 0.111
COCCS(=O)(=O)N1CCN(c2cc(-c3ncc(C)cc3C)c(Cl)cn2)CC1 ... 0.0292
CS(=O)(=O)CCC(=O)N1CCN(c2ccc(Cl)c(-c3ccccn3)n2)CC1 ... 0.0331

May I ask what IC50 has been recorded for Cc1cccnc1-c1ccnc(N2CCC(NS(C)(=O)=O)CC2)n1 ?
0.0177

* * *

A collection of molecules and their measured IC50
Test system: Gli-Luc/MEF cells
Experiment: Gli-Luc/MEF assay
Assay type: cell-based, mouse
Conditions: Mus musculus, MEF; Shh-stimulated luciferase, 48 hours
Procedure: The Gli-Luc/MEF cells obtained from Gli-Luc transgenic mice contain a luciferase reporter gene under the control of the Gli response element. Luciferase activity stimulated with Sonic hedgehog ligand was inhibited by Smo inhibitors, and IC50 was subsequently calculated. Plates were incubated at 37° C. and 5% CO2 overnight. […] Plates were kept at room temperature for 5 minutes, and then read on an Envision Luminescence plate reader (Perkin-Elmer). […]
Answer with a number only, understood to be in nM.

Cc1cnc(-c2ccnc(N3CCN(C(=O)CN4CCOCC4)CC3)c2)c(C)c1 [Example A-157] ... 3.58
Cc1ccc(-c2nc(N3CCC(NS(C)(=O)=O)CC3)ncc2Cl)nc1 [Example A-119] ... 22.9
CS(=O)(=O)NC1CCN(c2cc(-c3ncccc3Cl)c(Cl)cn2)CC1 [Example A-10] ... 209
CC(=O)NC1CCN(c2cc(-c3ncccc3C)c(Cl)cn2)CC1 [Example A-35] ... 67.7
CC(C)(O)CC(=O)NC1CCN(c2ccc(Cl)c(-c3ccccn3)n2)CC1 [Example A-131] ... 20.7

Find the recorded IC50 belonging to CS(=O)(=O)CC1CCN(c2ccc(Cl)c(-c3ccccn3)n2)CC1 [Example A-53] and report it.
27.3

What does the data say about its IC50? Entry: Cc1cccnc1-c1cc(N2CCC(NC(=O)CCS(C)(=O)=O)CC2)ncc1Cl [Example A-95]
32

Would you kindly share the measured IC50 for Cc1cccnc1-c1cc(N2CCC(C(=O)N[C@H]3CC[C@H](CO)CC3)CC2)ncc1Cl [Example A-89] ?
24.4

Request the reported IC50 associated with Cc1cccnc1-c1nc(N2CCC(NS(C)(=O)=O)CC2)ccc1Cl [Example A-16]
14.5

Find the recorded IC50 belonging to COCCS(=O)(=O)N1CCN(c2cc(-c3ncc(C)cc3C)ccn2)CC1 [Example A-155] and report it.
45

// query IC50 value for entry Cc1ccc(-c2nc(N3CCN(C(=O)CCS(C)(=O)=O)CC3)ccc2Cl)nc1 [Example A-147]
14.4

Can you look up the measured IC50 of Cc1ccc(-c2cccc(N3CCC(NS(C)(=O)=O)CC3)n2)nc1 [Example A-115] for me?
16

Name the recorded IC50 for Cc1cnc(-c2cc(N3CCN(C(=O)CCS(C)(=O)=O)CC3)ncc2F)c(C)c1 [Example A-142] .
16.6

Entry Cc1cnc(-c2ccnc(N3CCN(C(=O)CCS(C)(=O)=O)CC3)c2)c(C)c1 [Example A-141] has what IC50?
8.42

Endpoint output: IC50 of Cc1cc(F)cnc1-c1cc(N2CCC(NC(=O)CN(C)C)CC2)ncc1Cl [Example A-145] . Value?
11.3

Requested read-out: IC50. Entry: Cc1cccnc1-c1cc(N2CCC(OCC(=O)NC(C)(C)C)CC2)ncc1Cl [Example A-42]
37.1

Quick one: IC50 of CS(=O)(=O)CCC(=O)N1CCN(c2ccc(Cl)c(-c3ccccn3)n2)CC1 [Example A-99] ?
23.9

Reference for the values: patent US9056865B2
